- Test target: ATP-dependent translocase ABCB1 (Homo sapiens, UniProt P08183)
- Sequence (P08183 whole entry): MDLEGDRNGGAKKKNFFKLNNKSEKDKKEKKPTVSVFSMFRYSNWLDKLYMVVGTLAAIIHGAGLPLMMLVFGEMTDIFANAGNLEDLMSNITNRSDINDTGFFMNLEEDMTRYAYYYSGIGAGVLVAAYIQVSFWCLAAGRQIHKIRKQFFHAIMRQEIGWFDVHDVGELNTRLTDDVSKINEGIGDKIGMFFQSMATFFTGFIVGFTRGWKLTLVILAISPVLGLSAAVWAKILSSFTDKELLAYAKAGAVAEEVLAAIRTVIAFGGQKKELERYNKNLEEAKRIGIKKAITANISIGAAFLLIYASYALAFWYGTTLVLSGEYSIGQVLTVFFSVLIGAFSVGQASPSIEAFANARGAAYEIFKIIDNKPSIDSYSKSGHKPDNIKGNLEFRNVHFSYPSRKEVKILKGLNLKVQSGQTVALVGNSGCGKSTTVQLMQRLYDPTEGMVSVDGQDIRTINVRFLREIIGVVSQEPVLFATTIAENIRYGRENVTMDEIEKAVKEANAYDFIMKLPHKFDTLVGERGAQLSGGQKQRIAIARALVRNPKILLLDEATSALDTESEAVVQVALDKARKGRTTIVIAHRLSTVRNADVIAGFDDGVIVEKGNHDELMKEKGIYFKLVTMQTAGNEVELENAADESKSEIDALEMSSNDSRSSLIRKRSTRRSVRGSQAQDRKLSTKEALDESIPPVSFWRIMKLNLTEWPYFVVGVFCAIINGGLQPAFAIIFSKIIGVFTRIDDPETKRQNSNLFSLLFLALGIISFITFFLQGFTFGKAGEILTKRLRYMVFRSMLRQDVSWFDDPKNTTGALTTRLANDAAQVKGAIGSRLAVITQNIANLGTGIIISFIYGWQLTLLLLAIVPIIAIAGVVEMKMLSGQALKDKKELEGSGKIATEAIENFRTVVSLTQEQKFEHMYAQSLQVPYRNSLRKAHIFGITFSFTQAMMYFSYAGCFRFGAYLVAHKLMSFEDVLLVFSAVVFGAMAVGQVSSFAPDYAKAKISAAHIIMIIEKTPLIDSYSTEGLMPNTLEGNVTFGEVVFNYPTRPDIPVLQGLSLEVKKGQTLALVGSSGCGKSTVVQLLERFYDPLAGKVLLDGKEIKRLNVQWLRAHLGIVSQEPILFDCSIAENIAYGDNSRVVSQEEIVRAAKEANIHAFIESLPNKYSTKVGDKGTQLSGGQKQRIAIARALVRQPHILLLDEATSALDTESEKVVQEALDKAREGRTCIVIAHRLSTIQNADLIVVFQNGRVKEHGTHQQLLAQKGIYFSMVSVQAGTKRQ
- Assay text: Inhibition of MDR1-mediated efflux-pump activity in mouse L5178Y cells expressing human MDR1 assessed as mean fluorescence intensity at 20 uM preincubated for 10 mins followed by rhodamine-123 addition measured after 20 mins by flow cytometry (reference value: 7.1 to 18.6)
- Format: cell-based

>  <Compound>
CO[C@H]1C=C2[C@@H](CC[C@H](O)C2(C)C)[C@]2(C)C[C@@H](O)[C@]3(C)[C@@H]([C@H](C)C[C@@H](O)C=C(C)C)CC[C@@]3(C)[C@H]12

>  <Flu intensity>
202.8

$$$$
>  <Compound>
CC(C)=C[C@H](O)C[C@@H](C)[C@H]1CC[C@@]2(C)[C@@H]3C(=O)C=C4[C@@H](CC[C@H](O)C4(C)C)[C@]3(C)CC[C@]12C

>  <Flu intensity>
663.1

$$$$
>  <Compound>
CO[C@H]1C=C2[C@@H](CC[C@H](O)C2(C)C)[C@]2(C)CC[C@]3(C)[C@@H]([C@H](C)C[C@H](C=C(C)C)OC(=O)/C=C/c4ccccc4)CC[C@@]3(C)[C@H]12 [KARAVOATE O]

>  <Flu intensity>
11

$$$$
>  <Compound>
CC(=O)C[C@@H](C)[C@H]1CC[C@@]2(C)[C@@H]3C(=O)C=C4[C@@H](CC[C@H](O)[C@]4(C)CO)[C@]3(C)CC[C@]12C

>  <Flu intensity>
25.9

$$$$
>  <Compound>
CO[C@H]1C=C2[C@@H](CC[C@H](O)C2(C)C)[C@]2(C)CC[C@]3(C)[C@@H]([C@H](C)C[C@H](C=C(C)C)OC(=O)c4ccc(Cl)cc4)CC[C@@]3(C)[C@H]12 [KARAVOATE K]

>  <Flu intensity>
12.2

$$$$
>  <Compound>
CC(C)=C[C@H](O)C[C@@H](C)[C@H]1CC[C@@]2(C)[C@@H]3C(O[C@H]4O[C@@H](CO)[C@H](O)[C@@H](O)[C@@H]4O)C=C4[C@@H](CC[C@H](O)C4(C)C)[C@]3(C)CC[C@]12C (stereo partly specified)

>  <Flu intensity>
23.6

$$$$

---

- Test target: ATP-dependent translocase ABCB1 (Homo sapiens, UniProt P08183)
- Assay text: Inhibition of MDR1-mediated efflux-pump activity in mouse L5178Y cells expressing human MDR1 assessed as forward scattered light at 2 uM preincubated for 10 mins followed by rhodamine-123 addition measured after 20 mins by flow cytometry (reference value: 455.7 to 509.9)
- Format: cell-based
Measured parameter: Activity

>  <Compound>
CO[C@H]1C=C2[C@@H](CC[C@H](O)C2(C)C)[C@]2(C)CC[C@]3(C)[C@@H]([C@H](C)C[C@H](C=C(C)C)OC(=O)CCC(=O)O)CC[C@@]3(C)[C@H]12

>  <Test target>
ATP-dependent translocase ABCB1 (Homo sapiens, UniProt P08183)

>  <Measured parameter>
Activity

>  <Meas value>
545.2

$$$$
>  <Compound>
COc1ccc(C(=O)O[C@H]2CC[C@@H]3C(=C[C@H](OC)[C@@H]4[C@@]3(C)CC[C@]3(C)[C@@H]([C@H](C)C[C@H](C=C(C)C)OC(=O)c5ccc(OC)cc5)CC[C@@]43C)C2(C)C)cc1 [KARAVOATE N]

>  <Test target>
ATP-dependent translocase ABCB1 (Homo sapiens, UniProt P08183)

>  <Measured parameter>
Activity

>  <Meas value>
528.1

$$$$
>  <Compound>
CO[C@H]1C=C2[C@@H](CC[C@H](OC(=O)c3ccccc3)C2(C)C)[C@]2(C)CC[C@]3(C)[C@@H]([C@H](C)C/C=C/C(C)(C)O)CC[C@@]3(C)[C@H]12

>  <Test target>
ATP-dependent translocase ABCB1 (Homo sapiens, UniProt P08183)

>  <Measured parameter>
Activity

>  <Meas value>
454.2

$$$$
>  <Compound>
CO[C@H]1C=C2[C@@H](CC[C@H](OC(=O)c3ccc(Cl)cc3)C2(C)C)[C@]2(C)CC[C@]3(C)[C@@H]([C@H](C)C[C@H](C=C(C)C)OC(=O)c4ccc(Cl)cc4)CC[C@@]3(C)[C@H]12 [KARAVOATE L]

>  <Test target>
ATP-dependent translocase ABCB1 (Homo sapiens, UniProt P08183)

>  <Measured parameter>
Activity

>  <Meas value>
504.6

$$$$
>  <Compound>
CC(=O)C[C@@H](C)[C@H]1CC[C@@]2(C)[C@@H]3C(=O)C=C4[C@@H](CC[C@H](O)[C@]4(C)CO)[C@]3(C)CC[C@]12C [BALSAMINOL D]

>  <Test target>
ATP-dependent translocase ABCB1 (Homo sapiens, UniProt P08183)

>  <Measured parameter>
Activity

>  <Meas value>
439.9

$$$$
>  <Compound>
CO[C@H]1C=C2[C@@H](CC[C@H](O)C2(C)C)[C@]2(C)C[C@@H](O)[C@]3(C)[C@@H]([C@H](C)C[C@@H](O)C=C(C)C)CC[C@@]3(C)[C@H]12 [CUCURBALSAMINOL C]

>  <Test target>
ATP-dependent translocase ABCB1 (Homo sapiens, UniProt P08183)

>  <Measured parameter>
Activity

>  <Meas value>
568.5

$$$$
>  <Compound>
CC(=O)O[C@H]1C=C2[C@@H](CC[C@H](OC(C)=O)C2(C)C)[C@]2(C)CC[C@]3(C)[C@@H]([C@H](C)C[C@H](C=C(C)C)OC(C)=O)CC[C@@]3(C)[C@H]12 [TRIACETYLBALSAMINOL F]

>  <Test target>
ATP-dependent translocase ABCB1 (Homo sapiens, UniProt P08183)

>  <Measured parameter>
Activity

>  <Meas value>
541.9

$$$$
>  <Compound>
C[C@H](C/C=C/C(C)(C)O)[C@H]1CC[C@@]2(C)[C@@H]3[C@@H](O)C=C4[C@@H](CC[C@H](O)C4(C)C)[C@]3(C)CC[C@]12C

>  <Test target>
ATP-dependent translocase ABCB1 (Homo sapiens, UniProt P08183)

>  <Measured parameter>
Activity

>  <Meas value>
570.5

$$$$
>  <Compound>
CCCC(=O)O[C@H]1CC[C@@H]2C(=C[C@H](OC)[C@@H]3[C@@]2(C)CC[C@]2(C)[C@@H]([C@H](C)C[C@H](C=C(C)C)OC(=O)CCC)CC[C@@]32C)C1(C)C [KARAVOATE F]

>  <Test target>
ATP-dependent translocase ABCB1 (Homo sapiens, UniProt P08183)

>  <Measured parameter>
Activity

>  <Meas value>
542.6

$$$$

Where these numbers come from: ChEMBL document CHEMBL3860050
